- Test system: morningglory
- experimental details: Test A pre-/postemergence greenhouse test
- Format: in vivo, Ipomoea spp.
- assay conditions: Preemergence, 125 g ai/ha; 0 to 100 scale, 0 no effect, 100 complete control
- Source text: Seeds of barnyardgrass (Echinochloa crus-galli), crabgrass (Digitaria sanguinalis), giant foxtail (Setaria faberi), morningglory (Ipomoea spp.), redroot pigweed (Amaranthus retroflexus), velvetleaf (Abutilon theophrasti), wheat (Triticum aestivum), and corn (Zea mays) were planted into a blend of loam soil and sand and treated preemergence with a directed soil spray using test compounds formulated in a non-phytotoxic solvent mixture which included a surfactant. […]
property: Morningglory plant response rating
Reply briefly: the number, and no unit.

-- ask Quote morningglory Morningglory plant response rating for entry Cn1nc(C(F)(F)F)c(CS(=O)(=O)c2cccc[n+]2[O-])c1OCC(F)(F)C(F)(F)F [Compound 83] .
-- reply 0

-- ask Quote morningglory Morningglory plant response rating for entry Cn1nc(C(F)(F)F)c(CS(=O)(=O)c2cc(C(C)(C)C)cc[n+]2[O-])c1OC(F)F [Compound 25] .
-- reply 0

-- ask Quote morningglory Morningglory plant response rating for entry Cn1nc(C(F)(F)F)c(C(Cl)S(=O)(=O)c2cccc[n+]2[O-])c1Cl (stereo not shown) [Compound 12] .
-- reply 0

-- ask Quote morningglory Morningglory plant response rating for entry CCc1cc[n+]([O-])c([S+]([O-])Cc2c(C(F)(F)F)nn(C)c2OCC(F)(F)F)c1 (stereo not shown) [Compound 59] .
-- reply 70
